molecular target: E. coli PBP3 (Escherichia coli (strain K12), UniProt P0AD68); assay: E. coli PBP3 Bocillin-FL fluorescence polarization competition binding assay; details: assay validation with beta-lactams; PBP 1.5 μM, Bocillin-FL 0.1 μM; read-out: EC50 for PBP3 (reduction of Bocillin-FL binding)
Sequence (P0AD68 whole entry): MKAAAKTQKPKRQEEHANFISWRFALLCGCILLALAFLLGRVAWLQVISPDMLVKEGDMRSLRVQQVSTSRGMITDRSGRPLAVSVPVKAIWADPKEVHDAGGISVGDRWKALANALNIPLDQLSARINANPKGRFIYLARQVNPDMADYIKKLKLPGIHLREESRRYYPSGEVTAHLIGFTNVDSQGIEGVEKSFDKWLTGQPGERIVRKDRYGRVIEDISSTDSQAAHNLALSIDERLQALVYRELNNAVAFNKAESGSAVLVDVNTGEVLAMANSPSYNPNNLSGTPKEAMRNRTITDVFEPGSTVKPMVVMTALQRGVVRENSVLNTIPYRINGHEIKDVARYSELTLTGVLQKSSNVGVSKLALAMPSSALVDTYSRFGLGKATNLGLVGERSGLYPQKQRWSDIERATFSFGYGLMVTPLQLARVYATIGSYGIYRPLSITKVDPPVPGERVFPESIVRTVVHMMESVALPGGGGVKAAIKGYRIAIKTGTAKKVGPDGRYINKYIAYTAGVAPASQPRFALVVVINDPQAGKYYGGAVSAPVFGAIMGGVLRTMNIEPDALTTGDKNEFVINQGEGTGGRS
MEASUREMENT TYPE: EC50 (nM)
Give a bare numeral; the unit nM is implied.

*Q* Dear colleague, please send me the reported EC50 for CC1(C)S[C@@H]2[C@H](NC(=O)[C@H](N)c3ccccc3)C(=O)N2[C@H]1C(=O)O [ampicillin, reference compound] when you can.
*A* 1400

---

Assignment: determine reported MIC for the given compounds.
system: E. coli ATCC 25922; assay: Broth microdilution MIC, E. coli ATCC 25922; type: cell-based; details: Escherichia coli, ATCC25922, read-out: MIC E. coli 25922

*Q* For the compound `CCN1CCN(C(=O)N[C@@H](C(=O)N[C@H]2Cc3ccc(F)c(C(=O)O)c3OB2O)c2c(F)cc(O)c(O)c2Cl)C(=O)C1=O` , give its measured MIC value.
*A* 2 to 4 µg/mL

*Q* Please look at this compound and report its MIC: CCNC(=O)NC(C(=O)N[C@H]1Cc2cccc(C(=O)O)c2OB1O)c1csc(N)n1 (stereo partly shown)
*A* > 128 µg/mL

*Q* Give me measured MIC, please, for this compound: CC(=O)NCCN1CCN(C(=O)NC(C(=O)N[C@H]2Cc3ccc(F)c(C(=O)O)c3OB2O)c2ccc(O)c(O)c2Cl)C(=O)C1=O (stereo partly shown)
*A* 8 to 16 µg/mL

*Q* Assign MIC to the following record: CCN1CCN(C(=O)NC(C(=O)N[C@H]2Cc3cccc(C(=O)O)c3OB2O)c2ccc(O)cc2)C(=O)C1=O (stereo partly shown)
*A* 32 to 64 µg/mL

---

Would you kindly list pEC50 for each of these compounds?
target: E. coli PBP3 (Escherichia coli (strain K12)); assay: E. coli PBP3 Bocillin-FL fluorescence polarization competition binding assay; details: fluorescence polarization competition binding with Bocillin-FL; read-out: E. coli K12 PBP3 Potency
pEC50: −log10 of the molar value.

*Q* Note pEC50 for the compound shown: CCN1CCN(C(=O)NC(C(=O)N[C@H]2Cc3cccc(C(=O)O)c3OB2O)c2ccc(S(N)(=O)=O)cc2)C(=O)C1=O (stereo partly drawn)
*A* > 4.52

*Q* Output pEC50 of CCN1CCN(C(=O)NC(C(=O)N[C@H]2Cc3cccc(C(=O)O)c3OB2O)c2ccc(O)cc2Cl)C(=O)C1=O (stereo partly drawn)
*A* > 4.52

*Q* Please indicate pEC50 recorded for `CCN1CCN(C(=O)N[C@@H](C(=O)N[C@H]2Cc3cc(O)c(O)c(C(=O)O)c3OB2O)[C@@H](C)O)C(=O)C1=O`
*A* < 3.30

*Q* Supply measured pEC50 of CCN1CCN(C(=O)NC(C(=O)N[C@H]2Cc3ccc(F)c(C(=O)O)c3OB2O)c2csc(N)n2)C(=O)C1=O (stereo partly drawn) in your reply.
*A* > 4.52

*Q* Input `CCN1CCN(C(=O)N[C@@H](C(=O)N[C@H]2Cc3ccc(F)c(C(=O)O)c3OB2O)c2ccc(O)c(O)c2Cl)C(=O)C1=O` , output reported pEC50.
*A* > 4.52

*Q* # return recorded pEC50 for input CCNC(=O)NCCN1CCN(C(=O)NC(C(=O)N[C@H]2Cc3cccc(C(=O)O)c3OB2O)c2ccc(O)c(O)c2Cl)C(=O)C1=O (stereo partly drawn)
*A* > 4.52

---

Would you mind telling me the reported MIC of each entry?
test system: K. pneumoniae 848844; assay: microbe, parasite or virus in culture; assay type: cell-based, Klebsiella pneumoniae; conditions: Klebsiella pneumoniae; K. pneumoniae 848844 producing SHV-11 and KPC-2; read-out: MIC K. pneumoniae 848844

*Q* Supply MIC value. Item: CCN1CCN(C(=O)NC(C(=O)N[C@H]2Cc3cccc(C(=O)O)c3OB2O)c2cccs2)C(=O)C1=O (some centres unmarked)
*A* > 128 µg/mL

*Q* Please report the measured MIC for `NCCN1CCN(C(=O)N[C@@H](C(=O)N[C@H]2Cc3cccc(C(=O)O)c3OB2O)c2ccc(O)c(O)c2Cl)C(=O)C1=O`
*A* 0.5 to 1 µg/mL

*Q* Dear colleague, please send me the reported MIC for CCNC(=O)NCCN1CCN(C(=O)NC(C(=O)N[C@H]2Cc3cccc(C(=O)O)c3OB2O)c2ccc(O)c(O)c2Cl)C(=O)C1=O (some centres unmarked) when you can.
*A* 2 to 4 µg/mL

*Q* Provide MIC value for the following molecule: O=C(O)c1cccc2c1OB(O)[C@@H](NC(=O)C(NC(=O)N1C[C@@H]3CCCN3C(=O)C1=O)c1ncc(O)cc1F)C2 (some centres unmarked)
*A* > 128 µg/mL

*Q* For the molecule `CCN1CCN(C(=O)N[C@H](C(=O)N[C@H]2Cc3cccc(C(=O)O)c3OB2O)c2ccc(O)c(F)c2)C(=O)C1=O` , give its measured MIC value.
*A* > 128 µg/mL

*Q* Please give the documented MIC of CCN1CCN(C(=O)NC(C(=O)N[C@H]2Cc3cccc(C(=O)O)c3OB2O)c2ncc(O)cn2)C(=O)C1=O (some centres unmarked)
*A* > 128 µg/mL

*Q* Using the record for NS(=O)(=O)c1ccc(C(NC(=O)N2CCN(CCF)C(=O)C2=O)C(=O)N[C@H]2Cc3cccc(C(=O)O)c3OB2O)cc1F (some centres unmarked) , state its measured MIC.
*A* > 128 µg/mL

*Q* Supply reported MIC belonging to this molecule: CCN1CCN(C(=O)NC(C(=O)N[C@H]2Cc3cccc(C(=O)O)c3OB2O)c2ccc(OC)c(S(N)(=O)=O)c2)C(=O)C1=O (some centres unmarked)
*A* > 128 µg/mL

*Q* Let me know recorded MIC for CCN1C[C@H](CO)N(C(=O)NC(C(=O)N[C@H]2Cc3ccc(F)c(C(=O)O)c3OB2O)c2ccc(O)c(O)c2Cl)C(=O)C1=O (some centres unmarked) , thanks.
*A* 2 to 4 µg/mL

*Q* Supply MIC value. Item: O=C(O)c1cccc2c1OB(O)[C@@H](NC(=O)C(NC(=O)N1C[C@@H]3CCCN3C(=O)C1=O)c1ccc(O)c(O)c1Cl)C2 (some centres unmarked)
*A* > 128 µg/mL

*Q* Please look at this molecule and report its MIC: CCN1CCN(C(=O)NC(C(=O)N[C@H]2Cc3ccc(F)c(C(=O)O)c3OB2O)c2ncc(O)cc2Cl)C(=O)C1=O (some centres unmarked)
*A* > 128 µg/mL

*Q* Let me know recorded MIC for CCN1CCN(C(=O)NC(C(=O)N[C@H]2Cc3cccc(C(=O)O)c3OB2O)c2ccc(NS(C)(=O)=O)cn2)C(=O)C1=O (some centres unmarked) , thanks.
*A* > 128 µg/mL

*Q* Answer with reported MIC of `CCN1CCN(C(=O)N[C@@H](C(=O)N[C@H]2Cc3cccc(C(=O)O)c3OB2O)c2ccc(S(N)(=O)=O)c(O)c2)C(=O)C1=O`
*A* > 128 µg/mL

*Q* // fetch MIC given entry `NS(=O)(=O)c1ccc([C@H](NC(=O)N2CCN(CCBr)C(=O)C2=O)C(=O)N[C@H]2Cc3cccc(C(=O)O)c3OB2O)cc1O`
*A* > 128 µg/mL

*Q* Return reported MIC. Input molecule: CCN1CCN(C(=O)NC(C(=O)N[C@H]2Cc3cccc(C(=O)O)c3OB2O)c2nc(N)sc2F)C(=O)C1=O (some centres unmarked)
*A* 32 to 64 µg/mL

*Q* Answer with reported MIC of CCN1CCN(C(=O)NC(C(=O)N[C@H]2Cc3cccc(C(=O)O)c3OB2O)c2ncccn2)C(=O)C1=O (some centres unmarked)
*A* > 128 µg/mL

*Q* Look up and report measured MIC for this entry: `NS(=O)(=O)c1ccc([C@@H](NC(=O)N2CCN(CCBr)C(=O)C2=O)C(=O)N[C@H]2Cc3cccc(C(=O)O)c3OB2O)cc1O`
*A* > 128 µg/mL

*Q* # return recorded MIC for entry CCN1CCN(C(=O)NC(C(=O)N[C@H]2Cc3cccc(C(=O)O)c3OB2O)c2ncc(O)cc2C)C(=O)C1=O (some centres unmarked)
*A* > 128 µg/mL

*Q* Determine its reported MIC: Nc1ncc(C(NC(=O)N2CCN(CCF)C(=O)C2=O)C(=O)N[C@H]2Cc3cccc(C(=O)O)c3OB2O)s1 (some centres unmarked)
*A* 32 to 64 µg/mL

*Q* Look up and report measured MIC for this entry: CCN1CCN(C(=O)NC(C(=O)N[C@H]2Cc3cccc(C(=O)O)c3OB2O)c2ccc(O)cc2)C(=O)C1=O (some centres unmarked)
*A* > 128 µg/mL

*Q* Look up and report measured MIC for this entry: CCN1CCN(C(=O)NC(C(=O)N[C@H]2Cc3cccc(C(=O)O)c3OB2O)c2ccc(O)c(O)c2F)C(=O)C1=O (some centres unmarked)
*A* 8 to 16 µg/mL

*Q* Input CCN1CCN(C(=O)NC(C(=O)N[C@H]2Cc3ccc(F)c(C(=O)O)c3OB2O)c2ccc(S(N)(=O)=O)cc2)C(=O)C1=O (some centres unmarked) , output reported MIC.
*A* 32 to 64 µg/mL

*Q* // fetch MIC given entry CC[C@H]1CN(CC)C(=O)C(=O)N1C(=O)NC(C(=O)N[C@H]1Cc2cccc(C(=O)O)c2OB1O)c1ncc(O)cc1F (some centres unmarked)
*A* > 128 µg/mL

*Q* Specify reported MIC for the molecule shown: CCN1C[C@H](C)N(C(=O)NC(C(=O)N[C@H]2Cc3ccc(F)c(C(=O)O)c3OB2O)c2ncc(O)cc2F)C(=O)C1=O (some centres unmarked)
*A* 32 to 64 µg/mL

*Q* Complete the entry with MIC for NS(=O)(=O)NCCN1CCN(C(=O)NC(C(=O)N[C@H]2Cc3ccc(F)c(C(=O)O)c3OB2O)c2ccc(O)c(O)c2Cl)C(=O)C1=O (some centres unmarked)
*A* 2 to 4 µg/mL

*Q* Consider the molecule `NCCN1CCN(C(=O)N[C@H](C(=O)N[C@H]2Cc3cccc(C(=O)O)c3OB2O)c2ccc(O)c(O)c2Cl)C(=O)C1=O` and give its recorded MIC.
*A* 32 to 64 µg/mL
